Where do the numbers come from? From ChEMBL document CHEMBL3272220.

# Tested on: Mus musculus
# method-description: Anticonvulsant activity in po dosed CF albino mouse assessed as protection against electroshock-induced seizure
# Assay type: functional
The source made the active and inactive calls. The calls are words filed in the database; no cut-off is given here.
reported-endpoint: ED50

{"molecule": "CC1(C)CC(=O)C(CC(=O)c2ccccc2)=C(NNC(=N)N)C1", "target-desc": "Mus musculus", "experimental-value": "inactive"}
{"molecule": "CC1(C)CC(=O)C(CC(=O)c2ccccc2)=C(NNC(=O)c2ccncc2)C1", "target-desc": "Mus musculus", "experimental-value": "inactive"}
{"molecule": "CN1N=C(c2ccccc2)CC2=C1CC(C)(C)CC2=O", "target-desc": "Mus musculus", "experimental-value": "inactive"}
{"molecule": "CCN(CC)CCN1N=C(c2ccccc2)CC2=C1CCCC2=O.[O-][Cl+3]([O-])([O-])O", "target-desc": "Mus musculus", "experimental-value": "200 mg/kg"}

# CCN(CC)CCN1N=C(c2ccc(F)cc2)CC2=C1CC(C)(C)CC2=O with Mus musculus: ED50 is 150 mg/kg

# CCN(CC)CCN1N=C(c2cc(OC)c(OC)c(OC)c2)CC2=C1CC(C)(C)CC2=O.[O-][Cl+3]([O-])([O-])O with Mus musculus: ED50 is inactive

# CCN(CC)CCn1nc(C)c(=O)c2c1CC(C)(C)CC2=O with Mus musculus: ED50 is inactive

# CC1(C)CC(=O)C2=C(C1)N(c1ccccc1)N=C(c1ccccc1)C2 with Mus musculus: ED50 is inactive

# CN(C)CCN/N=C1/CC(C)(C)CC2=C1CC(c1ccccc1)=NN2CCN(C)C with Mus musculus: ED50 is inactive

# CC1(C)CC(=O)C2=C(C1)N(CCO)N=C(c1ccccc1)C2.Cc1ccc(S(=O)(=O)O)cc1 with Mus musculus: ED50 is inactive

# CC1(C)CC(=O)c2cc(-c3ccccc3)nnc2C1 with Mus musculus: ED50 is 500 mg/kg

# CC1(C)CC(=O)C2=C(C1)NN=C(c1ccccc1)C2 with Mus musculus: ED50 is inactive

# CC1(C)CC(=O)C2=C(C1)N(CCN1CCNCC1)N=C(c1ccc(Br)cc1)C2.Cl.O with Mus musculus: ED50 is inactive

---

# Tested on: Mus musculus
# method-description: Anticonvulsant activity in po dosed CF albino mouse assessed as protection against electroshock-induced seizure
# Assay type: functional
Active and inactive are the calls of the source. The rule behind the calls is not given here.
reported-endpoint: ED50

{"compound-smiles": "CN(C)CCN1N=C(c2ccc(F)cc2)CC2=C1CC(C)(C)CC2=O.O.O=C(O)C(=O)O", "target-desc": "Mus musculus", "experimental-value": "inactive"}
{"compound-smiles": "CN(C)CCN1N=C(c2ccccc2)CC2=C1CC(C)(C)CC2=O.[O-][Cl+3]([O-])([O-])O", "target-desc": "Mus musculus", "experimental-value": "500 mg/kg"}
{"compound-smiles": "CN(C)CCCN1N=C(c2ccccc2)CC2=C1CC(C)(C)CC2=O.O.[O-][Cl+3]([O-])([O-])O", "target-desc": "Mus musculus", "experimental-value": "500 mg/kg"}
{"compound-smiles": "CC1(C)CC(=O)C2=C(C1)N(CCN1CCNCC1)N=C(c1ccc(F)cc1)C2.Cc1ccc(S(=O)(=O)O)cc1.O", "target-desc": "Mus musculus", "experimental-value": "inactive"}
